Molecular target: SARS-CoV-2 spike protein WT (SARS-CoV-2 (WT), UniProt P0DTC2 14-1213)
Experiment: streptavidin bead fluorescence binding
Conditions: protein: commercial; tags: His; chain copies: 3; hairpin
pKd: −log10 of the molar value.

# Binder, pKd
rows = [
    ("AGGCGGGTTCCTAGACTTGTACTCAGCCT (ssDNA) [S2A2C1]", 7.08),
]
